molecular target: human orexin-2 receptor (Homo sapiens, UniProt O43614); construct: expressed in transfected cells; host or cells: CHO (Chinese hamster ovary) cells, grown under G418 selection; assay: FLIPR intracellular calcium assay, orexin receptor antagonistic activity (OX2); type: cell-based; conditions: CHO cells expressing human orexin-2 receptor; 3 nM orexin-A; measured with FLIPR Tetra (marked *)
Sequence (O43614 whole entry): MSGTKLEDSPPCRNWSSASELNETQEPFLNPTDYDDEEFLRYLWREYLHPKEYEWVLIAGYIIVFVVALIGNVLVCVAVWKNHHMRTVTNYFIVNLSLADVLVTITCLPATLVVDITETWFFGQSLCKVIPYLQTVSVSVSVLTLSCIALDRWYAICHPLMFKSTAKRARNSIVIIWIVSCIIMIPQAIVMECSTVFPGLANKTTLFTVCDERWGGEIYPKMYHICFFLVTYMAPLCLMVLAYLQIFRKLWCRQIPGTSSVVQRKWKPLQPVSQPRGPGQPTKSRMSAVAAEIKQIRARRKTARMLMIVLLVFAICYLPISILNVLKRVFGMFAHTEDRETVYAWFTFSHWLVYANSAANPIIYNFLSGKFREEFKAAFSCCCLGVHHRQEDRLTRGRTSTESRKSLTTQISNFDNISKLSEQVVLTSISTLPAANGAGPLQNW
The following compounds are listed with their measured IC50 values.
Note: unit nM is implicit; provide only the numeric part.

A selection of reference data follows.
COc1cccc(-c2sc(Br)nc2C(=O)N(CCNC(=O)c2c(C)nc3sccn23)CC2CC2)c1 [Example 179] :: 10
Nc1nc(C(=O)N(CCNC(=O)c2cccc3occc23)CC2CC2)c(-c2ccc(F)cc2)s1 [Example 261] :: 4.2
Nc1nc(C(=O)N(CCNC(=O)c2cccc3occc23)CC2CC2)c(-c2cccc(Cl)c2)s1 [Example 262] :: 17
Cc1ccc(-c2sc(Br)nc2C(=O)N(CCNC(=O)c2c(C)nc3sccn23)C2CC2)cc1 [Example 111] :: 23

[Q] For the compound shown here, COc1cccc(-c2sc(C)nc2C(=O)N(CCNC(=O)c2cccc3c2OCCO3)CC2CC2)c1 [Example 248] , give the reported IC50.
[A] 29

[Q] Could you do the same for Cc1nc(C(=O)N(CCNC(=O)c2c(C)nc3sccn23)CC2CC2)c(-c2cccc(C#N)c2)s1 [Example 187] , please?
[A] 28

[Q] Could you do the same for Cc1nc(C(=O)N(CCNC(=O)c2cccc3occc23)C2CC2)c(-c2ccc(C)c(C)c2)s1 [Example 165] , please?
[A] 4.3

[Q] Could you do the same for Cc1cccc(-c2sc(N)nc2C(=O)N(CCNC(=O)c2nn(C)c3ccccc23)CC2CC2)c1 [Example 195] , please?
[A] 12

[Q] Could you do the same for Cc1cccc(-c2ccccc2C(=O)N(CCNC(=O)c2nn(C)c3ccccc23)C2CC2)c1 [Example 144] , please?
[A] 20

[Q] Could you do the same for Cc1cccc(-c2sc(C3CC3)nc2C(=O)N(CCNC(=O)c2c(C)nc3sccn23)CC2CC2)c1 [Example 171] , please?
[A] 12

[Q] Could you do the same for Cc1cccc(-c2ccccc2C(=O)N(CCNC(=O)c2cccc3c2OCCO3)CC2CC2)c1 [Example 252] , please?
[A] 203

[Q] Could you do the same for COc1cccc(-c2sc(C)nc2C(=O)N(CCNC(=O)c2nn(C)c3ccccc23)C2CC2)c1 [Example 140] , please?
[A] 68

---

molecular target: human orexin-1 receptor (Homo sapiens); construct: expressed in transfected cells; host or cells: CHO (Chinese hamster ovary) cells, grown under G418 selection; experiment: FLIPR intracellular calcium assay, orexin receptor antagonistic activity (OX1); format: cell-based; conditions: CHO cells expressing human orexin-1 receptor; 3 nM orexin-A; measured with FLIPR Tetra (marked *)
Sequence (O43613 whole entry): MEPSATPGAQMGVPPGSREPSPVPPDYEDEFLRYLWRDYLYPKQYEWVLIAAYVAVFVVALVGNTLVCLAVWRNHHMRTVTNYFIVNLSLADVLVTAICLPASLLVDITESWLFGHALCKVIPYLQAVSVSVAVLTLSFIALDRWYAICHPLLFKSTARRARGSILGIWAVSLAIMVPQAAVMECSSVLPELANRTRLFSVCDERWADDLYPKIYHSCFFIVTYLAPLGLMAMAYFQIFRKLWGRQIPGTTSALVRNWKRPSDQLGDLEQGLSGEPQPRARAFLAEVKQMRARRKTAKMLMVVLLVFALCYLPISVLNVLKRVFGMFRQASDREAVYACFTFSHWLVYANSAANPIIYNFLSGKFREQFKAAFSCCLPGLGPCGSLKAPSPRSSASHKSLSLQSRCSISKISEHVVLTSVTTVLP
MEASUREMENT NAME: pIC50
Value format note: pIC50 is -log10 of concentration (mol/L); just state the number.

A selection of reference data follows.
COc1cccc(-c2sc(C)nc2C(=O)N(CCNC(=O)c2cccc3c2OCCO3)CC2CC2)c1 :: 6.36
Cc1cccc(-c2sc(N)nc2C(=O)N(CCNC(=O)c2nn(C)c3ccccc23)CC2CC2)c1 :: 7.24
Cc1cccc(-c2sc(C3CC3)nc2C(=O)N(CCNC(=O)c2c(C)nc3sccn23)CC2CC2)c1 :: 7.80
COc1cccc(-c2sc(Br)nc2C(=O)N(CCNC(=O)c2c(C)nc3sccn23)CC2CC2)c1 :: 8.00

[Q] Lookup: pIC50 / human orexin-1 receptor (Homo sapiens) / `Nc1nc(C(=O)N(CCNC(=O)c2cccc3occc23)CC2CC2)c(-c2cccc(Cl)c2)s1`
[A] 6.84

[Q] Could you do the same for `Nc1nc(C(=O)N(CCNC(=O)c2cccc3occc23)CC2CC2)c(-c2ccc(F)cc2)s1` , please?
[A] 6.58

[Q] Could you do the same for `Cc1cccc(-c2ccccc2C(=O)N(CCNC(=O)c2nn(C)c3ccccc23)C2CC2)c1` , please?
[A] 7.02

[Q] Could you do the same for `Cc1ccc(-c2sc(Br)nc2C(=O)N(CCNC(=O)c2c(C)nc3sccn23)C2CC2)cc1` , please?
[A] 7.41

[Q] Could you do the same for `COc1cccc(-c2sc(C)nc2C(=O)N(CCNC(=O)c2nn(C)c3ccccc23)C2CC2)c1` , please?
[A] 7.01

[Q] Could you do the same for `Cc1nc(C(=O)N(CCNC(=O)c2c(C)nc3sccn23)CC2CC2)c(-c2cccc(C#N)c2)s1` , please?
[A] 7.77

[Q] Could you do the same for `Cc1nc(C(=O)N(CCNC(=O)c2cccc3occc23)C2CC2)c(-c2ccc(C)c(C)c2)s1` , please?
[A] 8.70

[Q] Could you do the same for `Cc1cccc(-c2ccccc2C(=O)N(CCNC(=O)c2cccc3c2OCCO3)CC2CC2)c1` , please?
[A] 6.09
